Origin of values: PubChem BioAssay AID1259407

# Test system: CCRIS mutagenicity, Ames/micronucleus/aberration tests
# protocol: CCRIS mutagenicity studies
# experimental_context: Test System: AMES SALMONELLA TYPHIMURIUM; Strain/Indicator: TA100; Metabolic Activation: NONE; Method: STANDARD PLATE
Calls of active or inactive are those of the source. How the calls were made is not given here.
Outcome codes: 1 for active, 0 for inactive

compound: CC(C)=CC1C(C(=O)OCc2coc(Cc3ccccc3)c2)C1(C)C (configuration not stated)
category: 0
//
compound: NC(=O)/C(=C\c1ccc([N+](=O)[O-])o1)c1ccco1
category: 1
//
compound: CC(=O)c1cc2c(cc1C)C(C)(C)C(C)C2C(C)C (configuration not stated)
category: 0
//
compound: c1cnc2c(c1)[C@@H]1O[C@@H]1C1OC21 (some centres not stated)
category: 0
//
compound: Nc1ccc(N)cc1
category: 0
//
compound: Cc1ccc(S(=O)(=O)OC(C)C)cc1
category: 1
//
compound: O=CC(O)C(O)C(O)C(O)COC1OC(COC2OC(CO)C(O)C(O)C2O)C(O)C(O)C1O (configuration not stated)
category: 0
//
compound: CCC(=O)Oc1ccc(/C(CC)=C(\CC)c2ccc(OC(=O)CC)cc2)cc1
category: 0
//
compound: O=C1C=C(c2nnc(NC(=O)c3ccccc3)s2)C(=O)C=C1Nc1ccc([N+](=O)[O-])cc1
category: 1
//
compound: CC(=O)OCc1c2ccccc2c2ccc3cccc4ccc1c2c43
category: 1
//
compound: O=[N+]([O-])c1ccc(/C=N/n2cccn2)o1
category: 1
//
compound: O=C1NC(=O)C(Cl)=C1Cl
category: 1
